All figures here come from patent US4474800A.

Catalogue of concentration at 1 h readings, one per entry.
- test method notes: Concentration in rat plasma after subcutaneous administration
- Format: in vivo
- test parameters: sc, rats, 50 mg/kg, an hour after administration
Give the value, in units of ng/mL, as a plain number.

                                   molecule  reported_measurement
0  CC(C)C[C@H](NC(=O)C1OC1C(=O)O)C(=O)NCCCCN (mixture of isomers) [Compound 12]                 25000
1  CC[C@H](C)[C@H](NC(=O)C1OC1C(=O)OCc1ccccc1)C(=O)NCCCCNC(=O)OCc1ccccc1 (mixture of isomers) [Compound 5]                  1400
2  CC(C)C[C@H](NC(=O)C1OC1C(=O)OCc1ccccc1)C(=O)NCCCCNC(=O)c1ccccc1 (mixture of isomers) [Compound 9]                  1300

Shifting focus to the molecule that follows.
INPUT: // lookup concentration at 1 h for CC(C)C[C@H](NC(=O)C1OC1C(=O)OC1CCCCC1)C(=O)NCCCCNC(=O)OCc1ccccc1 (mixture of isomers) [Compound 6]
OUTPUT: 1500
